system: Cryptococcus neoformans
measurement.kind: MIC (µg/mL)
Give bare numbers, in µg/mL.

Use the examples below as a reference point.
CN[C@@H]1[C@H](O[C@@H]2OC[C@@H](O)[C@@H](O)[C@H]2O)[C@@H](O)[C@H](O[C@H]2c3cc(C)c(C(=O)N[C@H](C)C(=O)O)c(O)c3-c3c(cc4c(c3O)C(=O)c3cc(OC)cc(O)c3C4=O)[C@@H]2O)O[C@@H]1C; 1.6
CN[C@@H]1[C@H](O[C@H]2OC[C@H](O)[C@@H](O)[C@@H]2O)[C@@H](O)[C@H](O[C@H]2c3cc(C)c(C(=O)N[C@H](C)C(=O)O)c(O)c3-c3c(cc4c(c3O)C(=O)c3cc(OC)cc(O)c3C4=O)[C@@H]2O)O[C@@H]1C; 1.6
CN[C@@H]1[C@H](O[C@@H]2O[C@H](C)[C@@H](O)[C@H](O)[C@H]2O)[C@@H](O)[C@H](O[C@H]2c3cc(C)c(C(=O)N[C@H](C)C(=O)O)c(O)c3-c3c(cc4c(c3O)C(=O)c3cc(OC)cc(O)c3C4=O)[C@@H]2O)O[C@@H]1C; 1.6

Report MIC for every entry below.
1. CN[C@@H]1[C@H](O)[C@@H](O)[C@H](O[C@H]2c3cc(C)c(C(=O)N[C@H](C)C(=O)O)c(O)c3-c3c(cc4c(c3O)C(=O)c3cc(OC)cc(O)c3C4=O)[C@@H]2O)O[C@@H]1C [Pradimicin B, reference compound]
2. CN[C@@H]1[C@H](O[C@@H]2OC[C@H](O)[C@H](O)[C@H]2O)[C@@H](O)[C@H](O[C@H]2c3cc(C)c(C(=O)N[C@H](C)C(=O)O)c(O)c3-c3c(cc4c(c3O)C(=O)c3cc(OC)cc(O)c3C4=O)[C@@H]2O)O[C@@H]1C

# output
1. 0.8
2. 1.6

====

tested on: Cryptococcus neoformans
measurement.kind: MIC (µg/mL)
Answers are plain numbers, in µg/mL.

CN[C@@H]1[C@H](O[C@@H]2OC[C@@H](O)[C@H](O)[C@H]2O)[C@@H](O)[C@H](O[C@H]2c3cc(C)c(C(=O)N[C@H](C)C(=O)O)c(O)c3-c3c(cc4c(c3O)C(=O)c3cc(OC)cc(O)c3C4=O)[C@@H]2O)O[C@@H]1C [Pradimicin A, reference compound]; 0.8

Documented MIC of CN[C@@H]1[C@H](O[C@@H]2O[C@H](C)[C@H](O)[C@H](O)[C@H]2O)[C@@H](O)[C@H](O[C@H]2c3cc(C)c(C(=O)N[C@H](C)C(=O)O)c(O)c3-c3c(cc4c(c3O)C(=O)c3cc(OC)cc(O)c3C4=O)[C@@H]2O)O[C@@H]1C : 1.6

====

system: Cryptococcus neoformans
measurement.kind: MIC (µg/mL)
Give bare numbers, in µg/mL.

The reported MIC of the molecule CN[C@@H]1[C@H](O[C@@H]2O[C@H](CO)[C@@H](O)[C@H](O)[C@H]2O)[C@@H](O)[C@H](O[C@H]2c3cc(C)c(C(=O)N[C@H](C)C(=O)O)c(O)c3-c3c(cc4c(c3O)C(=O)c3cc(OC)cc(O)c3C4=O)[C@@H]2O)O[C@@H]1C [Example 6, 3'-O-β-D-glucopyranosylpradimicin B] was 1.6
